Recorded MIC (μg/ml) Broth microdilution values for a group of molecules are listed next.
Tested on: Escherichia Coli MC 4100
Assay notes: MIC broth microdilution, E. coli MC 4100 (wild type)
Format: cell-based
Condition description: E. coli MC 4100
Experimental readout: MIC (μg/ml) Broth microdilution (µg/mL)

# Molecule, Sign, Quantitative result
rows = [
    ("CC(C)[C@H](NC(=O)N[C@@H](Cc1c[nH]c2ccccc12)C(=O)O)C(=O)N[C@H](C(=O)NC[C@H]1C[C@@H](O)[C@H](n2ccc(=O)[nH]c2=O)O1)[C@H](C)N(C)C(=O)[C@H](C)N", "=", 256),
    ("C[C@H](N)C(=O)N(C)[C@@H](C)[C@H](NC(=O)[C@H](Cc1ccc2ccccc2c1)NC(=O)N[C@@H](Cc1c[nH]c2ccccc12)C(=O)O)C(=O)NC[C@H]1C[C@@H](O)[C@H](n2ccc(=O)[nH]c2=O)O1", "=", 512),
    ("CC(N)C(=O)N(C)C(C)C(NC(=O)C(Cc1csc2ccccc12)NC(=O)NC(Cc1ccc(O)cc1)C(=O)O)C(=O)NCC1CC(O)C(n2ccc(=O)[nH]c2=O)O1 (stereo not shown)", "=", 64),
    ("CC(C(NC(=O)C(Cc1ccc(F)cc1)NC(=O)NC(Cc1ccc(O)cc1)C(=O)O)C(=O)NCC1CC(O)C(n2ccc(=O)[nH]c2=O)O1)N(C)C(=O)C(N)Cc1ccc(F)cc1 (stereo not shown)", "=", 512),
    ("CC(C(NC(=O)C(Cc1ccccc1)NC(=O)NC(Cc1c[nH]c2ccccc12)C(=O)O)C(=O)NCC1CC(O)C(n2ccc(=O)[nH]c2=O)O1)N(C)C(=O)C(N)Cc1ccccc1 (stereo not shown)", "=", 512),
    ("CC(C(NC(=O)C(Cc1ccc(F)cc1)NC(=O)NC(Cc1c[nH]c2ccccc12)C(=O)O)C(=O)NCC1CC(O)C(n2ccc(=O)[nH]c2=O)O1)N(C)C(=O)C(N)Cc1ccccc1 (stereo not shown)", ">", 512),
    ("CC(C(NC(=O)C(Cc1ccccc1)NC(=O)NC(Cc1c[nH]c2ccccc12)C(=O)O)C(=O)NCC1CC(O)C(n2ccc(=O)[nH]c2=O)O1)N(C)C(=O)C(N)Cc1ccc(F)cc1 (stereo not shown)", "=", 512),
    ("CC(N)C(=O)N(C)C(C)C(NC(=O)C(Cc1ccc(F)cc1)NC(=O)NC(C(=O)O)c1ccccc1)C(=O)NCC1CC(O)C(n2ccc(=O)[nH]c2=O)O1 (mixture of isomers) [Compound 142]", "=", 512),
    ("CSCCC(NC(=O)NC(Cc1ccc(O)cc1)C(=O)O)C(=O)NC(C(=O)NCC1CC(O)C(n2ccc(=O)[nH]c2=O)O1)C(C)N(C)C(=O)CN (stereo not shown)", "<", 512),
    ("CC(NC(=O)NC(Cc1c[nH]c2ccccc12)C(=O)O)C(=O)NC(C(=O)NCC1CC(O)C(n2ccc(=O)[nH]c2=O)O1)C(C)N(C)C(=O)CN (stereo not shown)", ">", 512),
    ("CC(N)C(=O)N(C)C(C)C(NC(=O)C(CCc1ccccc1)NC(=O)NC(Cc1c[nH]c2ccccc12)C(=O)O)C(=O)NCC1CC(O)C(n2ccc(=O)[nH]c2=O)O1 (stereo not shown)", "=", 512),
    ("CSCCC(NC(=O)NC(Cc1c[nH]c2ccccc12)C(=O)O)C(=O)NC(C(=O)NCC1CC(O)C(n2ccc(=O)[nH]c2=O)O1)C(C)N(C)C(=O)C(N)Cc1ccc(F)cc1 (stereo not shown)", "=", 512),
    ("CN[C@@H](C)[C@H](NC(=O)[C@H](Cc1ccccc1)NC(=O)N[C@@H](Cc1c[nH]c2ccccc12)C(=O)O)C(=O)NC[C@H]1C[C@@H](O)[C@H](n2ccc(=O)[nH]c2=O)O1", "=", 512),
    ("CC(N)C(=O)N(C)C(C)C(NC(=O)C(Cc1ccc(Cl)cc1)NC(=O)NC(Cc1ccc(O)cc1)C(=O)O)C(=O)NCC1CC(O)C(n2ccc(=O)[nH]c2=O)O1 (stereo not shown)", "=", 8),
    ("CC(N)C(=O)N(C)C(C)C(NC(=O)C(Cc1cscn1)NC(=O)NC(Cc1ccc(O)cc1)C(=O)O)C(=O)NCC1CC(O)C(n2ccc(=O)[nH]c2=O)O1 (stereo not shown)", "=", 256),
    ("CC(N)C(=O)N(C)C(C)C(NC(=O)C(Cc1ccc(-c2ccccc2)cc1)NC(=O)NC(Cc1c[nH]c2ccccc12)C(=O)O)C(=O)NCC1CC(O)C(n2ccc(=O)[nH]c2=O)O1 (stereo not shown)", "=", 512),
    ("C[C@H](N)C(=O)N(C)[C@@H](C)[C@H](NC(=O)[C@H](Cc1ccc2ccccc2c1)NC(=O)N[C@@H](Cc1ccc(O)cc1)C(=O)O)C(=O)NC[C@H]1C[C@@H](O)[C@H](n2ccc(=O)[nH]c2=O)O1", "=", 256),
    ("C[C@H](N)C(=O)N(C)[C@@H](C)[C@H](NC(=O)[C@H](Cc1ccccc1F)NC(=O)N[C@@H](Cc1ccc(O)cc1)C(=O)O)C(=O)NC[C@H]1C[C@@H](O)[C@H](n2ccc(=O)[nH]c2=O)O1", "=", 64),
    ("CC(C)CC(N)C(=O)N(C)C(C)C(NC(=O)C(Cc1ccccc1)NC(=O)NC(Cc1c[nH]c2ccccc12)C(=O)O)C(=O)NCC1CC(O)C(n2ccc(=O)[nH]c2=O)O1 (stereo not shown)", ">", 512),
]
